Exercise: for every item that follows, state its recorded IC50.
TESTED_TARGET: UniProtKB Q16288
Sequence (Q16288 32-839): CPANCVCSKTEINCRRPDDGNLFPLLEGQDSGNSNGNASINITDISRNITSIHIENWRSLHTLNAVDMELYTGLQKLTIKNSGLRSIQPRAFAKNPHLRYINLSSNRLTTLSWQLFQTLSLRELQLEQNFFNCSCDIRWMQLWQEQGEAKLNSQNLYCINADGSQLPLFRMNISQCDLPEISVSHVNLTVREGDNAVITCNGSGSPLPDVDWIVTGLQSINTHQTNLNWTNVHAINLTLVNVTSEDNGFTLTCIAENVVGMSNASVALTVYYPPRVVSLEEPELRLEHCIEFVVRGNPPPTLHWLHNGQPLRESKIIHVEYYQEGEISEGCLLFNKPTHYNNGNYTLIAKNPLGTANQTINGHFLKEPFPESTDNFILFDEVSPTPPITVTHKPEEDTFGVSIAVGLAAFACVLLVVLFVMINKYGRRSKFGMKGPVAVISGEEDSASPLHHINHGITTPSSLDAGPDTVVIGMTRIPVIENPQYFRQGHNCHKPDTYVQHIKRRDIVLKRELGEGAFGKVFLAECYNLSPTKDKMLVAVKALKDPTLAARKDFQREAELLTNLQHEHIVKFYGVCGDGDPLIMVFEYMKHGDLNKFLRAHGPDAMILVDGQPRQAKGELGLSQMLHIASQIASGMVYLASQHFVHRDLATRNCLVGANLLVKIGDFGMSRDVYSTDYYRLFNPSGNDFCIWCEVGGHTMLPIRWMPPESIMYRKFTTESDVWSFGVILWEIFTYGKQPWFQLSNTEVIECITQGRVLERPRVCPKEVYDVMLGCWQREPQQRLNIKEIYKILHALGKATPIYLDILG
ASSAY: HTRF KinEASE kinase assay, recombinant Human TRK enzyme, TrkC (NTRK3)
MEASUREMENT_SETUP: NTRK3 10 nM, read-out: TrkC Enz
Answers are plain numbers, in nM.

Use these answered entries as a reference point.
CHEMICAL_STRUCTURE	IC50 / nM
CSc1cc(F)cc([C@H]2C[C@H](F)CN2c2ccc3ncc(C(=O)N[C@H]4CCN(Cc5cccc(C(=O)O)c5)C4)n3n2)c1	3.98
CSc1cc(F)cc([C@H]2C[C@H](F)CN2c2ccn3ncc(C(=O)NC4CCN(Cc5cccc(O)c5)CC4)c3n2)c1	1.38
CSc1cc(F)cc([C@H]2C[C@H](F)CN2c2ccc3ncc(C(=O)N[C@H]4CCN(Cc5ccc(F)c(O)c5)C4)n3n2)c1	5.19
CSc1ccc(F)cc1[C@H]1C[C@H](F)CN1c1ccc2ncc(C(=O)NCc3cccc(O)c3)n2n1	1.25
CO[C@H]1CN(Cc2ccc(F)c(O)c2)C[C@@H]1NC(=O)c1cnc2ccc(N3C[C@@H](F)C[C@@H]3c3cc(F)cc(SC)c3)nn12	6.85

Dear reader, for each entry below, please note its IC50.
1. CSc1ccc(F)cc1[C@H]1C[C@H](F)CN1c1ccc2ncc(C(=O)NC3CCN(Cc4ccc(F)c(O)c4)CC3)n2n1
2. COC(=O)c1cccc(CN2CC[C@H](NC(=O)c3cnc4ccc(N5C[C@@H](F)C[C@@H]5c5cc(F)ccc5SC)nn34)C2)c1
3. CSc1ccc(F)cc1[C@H]1CCCN1c1ccc2ncc(C(=O)N[C@H]3CCN(Cc4ccc(F)c(O)c4)C3)n2n1
4. CSc1cc(F)cc([C@H]2C[C@H](F)CN2c2ccc3ncc(C(=O)NC4CCN(Cc5cccc(O)c5)CC4)n3n2)c1

1: 1.56; 2: 2.12; 3: 3.36; 4: 2.13
